Kindly state MIC 3798 S. aureus (GISA) for each of the entries shown.
Tested on: 3798 S. aureus (GISA)
Test: MIC, broth microdilution in Meuller-Hinton broth (NCCLS)
Type: cell-based, Staphylococus aureus
Details: glycopeptides-intermediate clinical isolate
Give bare numbers, in µg/mL.

Some entries whose results are on file:
CNC(CC(C)C)C(=O)NC1C(=O)NC(CC(N)=O)C(=O)NC2C(=O)NC3C(=O)NC(C(=O)NC(C(=O)O)c4cc(O)cc(O)c4-c4cc3ccc4O)C(OC3CC(C)(N)C(O)C(C)O3)c3ccc(cc3)Oc3cc2cc(c3OC2OC(CO)C(O)C(O)C2OC2CC(C)(NC(=O)CNCc3ccc(OCc4ccccc4)cc3)C(O)C(C)O2)Oc2ccc(cc2Cl)C1O (stereo not drawn)	8
CNC(CC(C)C)C(=O)NC1C(=O)NC(CC(N)=O)C(=O)NC2C(=O)NC3C(=O)NC(C(=O)NC(C(=O)O)c4cc(O)cc(O)c4-c4cc3ccc4O)C(O)c3ccc(c(Cl)c3)Oc3cc2cc(c3OC2OC(CO)C(O)C(O)C2OC2CC(C)(NC(=O)CNCc3ccc(F)cc3)C(O)C(C)O2)Oc2ccc(cc2Cl)C1O (stereo not drawn)	4
CCCCCCCCCC(=O)NCC(=O)NC1(C)CC(OC2C(Oc3c4cc5cc3Oc3ccc(cc3Cl)C(O)C(NC(=O)C(CC(C)C)NC)C(=O)NC(CC(N)=O)C(=O)NC5C(=O)NC3C(=O)NC(C(=O)NC(C(=O)O)c5cc(O)cc(O)c5-c5cc3ccc5O)C(OC3CC(C)(N)C(O)C(C)O3)c3ccc(cc3)O4)OC(CO)C(O)C2O)OC(C)C1O (stereo not drawn)	16

Below are some compounds; for each one, tell me its MIC 3798 S. aureus (GISA).
1. CCCCc1ccc(CNCC(=O)NC2(C)CC(OC3C(Oc4c5cc6cc4Oc4ccc(cc4Cl)C(O)C(NC(=O)C(CC(C)C)NC)C(=O)NC(CC(N)=O)C(=O)NC6C(=O)NC4C(=O)NC(C(=O)NC(C(=O)O)c6cc(O)cc(O)c6-c6cc4ccc6O)C(OC4CC(C)(N)C(O)C(C)O4)c4ccc(cc4)O5)OC(CO)C(O)C3O)OC(C)C2O)cc1 (stereo not drawn)
2. CCCCOc1ccc(CNCC(=O)NC2(C)CC(OC3C(Oc4c5cc6cc4Oc4ccc(cc4Cl)C(O)C(NC(=O)C(CC(C)C)NC)C(=O)NC(CC(N)=O)C(=O)NC6C(=O)NC4C(=O)NC(C(=O)NC(C(=O)O)c6cc(O)cc(O)c6-c6cc4ccc6O)C(OC4CC(C)(N)C(O)C(C)O4)c4ccc(cc4)O5)OC(CO)C(O)C3O)OC(C)C2O)cc1 (stereo not drawn)
3. CNC(CC(C)C)C(=O)NC1C(=O)NC(CC(N)=O)C(=O)NC2C(=O)NC3C(=O)NC(C(=O)NC(C(=O)O)c4cc(O)cc(O)c4-c4cc3ccc4O)C(O)c3ccc(c(Cl)c3)Oc3cc2cc(c3OC2OC(CO)C(O)C(O)C2OC2CC(C)(NC(=O)CNCc3ccc(-c4ccc(Cl)cc4)cc3)C(O)C(C)O2)Oc2ccc(cc2Cl)C1O (stereo not drawn)
4. CCCCN(CCCC)c1ccc(CNCC(=O)NC2(C)CC(OC3C(Oc4c5cc6cc4Oc4ccc(cc4Cl)C(O)C(NC(=O)C(CC(C)C)NC)C(=O)NC(CC(N)=O)C(=O)NC6C(=O)NC4C(=O)NC(C(=O)NC(C(=O)O)c6cc(O)cc(O)c6-c6cc4ccc6O)C(OC4CC(C)(N)C(O)C(C)O4)c4ccc(cc4)O5)OC(CO)C(O)C3O)OC(C)C2O)cc1 (stereo not drawn)

result:
4
4
1
8

// each listed compound needs a value for MIC 3798 S. aureus (GISA)
1. CNC(CC(C)C)C(=O)NC1C(=O)NC(CC(N)=O)C(=O)NC2C(=O)NC3C(=O)NC(C(=O)NC(C(=O)O)c4cc(O)cc(O)c4-c4cc3ccc4O)C(OC3CC(C)(N)C(O)C(C)O3)c3ccc(cc3)Oc3cc2cc(c3OC2OC(CO)C(O)C(O)C2OC2CC(C)(NC(=O)CNCc3cc4ccccc4c4ccccc34)C(O)C(C)O2)Oc2ccc(cc2Cl)C1O (stereo not drawn)
2. CNC(CC(C)C)C(=O)NC1C(=O)NC(CC(N)=O)C(=O)NC2C(=O)NC3C(=O)NC(C(=O)NC(C(=O)NC(C)C45CC6CC(CC(C6)C4)C5)c4cc(O)cc(O)c4-c4cc3ccc4O)C(OC3CC(C)(N)C(O)C(C)O3)c3ccc(cc3)Oc3cc2cc(c3OC2OC(CO)C(O)C(O)C2OC2CC(C)(N)C(O)C(C)O2)Oc2ccc(cc2Cl)C1O (stereo not drawn)
3. CCCCc1ccc(CNCC(=O)NC2(C)CC(OC3C(Oc4c5cc6cc4Oc4ccc(cc4Cl)C(O)C(NC(=O)C(CC(C)C)NC)C(=O)NC(CC(N)=O)C(=O)NC6C(=O)NC4C(=O)NC(C(=O)NC(C(=O)NC)c6cc(O)cc(O)c6-c6cc4ccc6O)C(OC4CC(C)(N)C(O)C(C)O4)c4ccc(cc4)O5)OC(CO)C(O)C3O)OC(C)C2O)cc1 (stereo not drawn)

result:
[16, 2, 2]

query: What measured MIC 3798 S. aureus (GISA) is associated with CNC(CC(C)C)C(=O)NC1C(=O)NC(CC(N)=O)C(=O)NC2C(=O)NC3C(=O)NC(C(=O)NC(C(=O)O)c4cc(O)cc(O)c4-c4cc3ccc4O)C(OC3CC(C)(N)C(O)C(C)O3)c3ccc(cc3)Oc3cc2cc(c3OC2OC(CO)C(O)C(O)C2OC2CC(C)(NC(=O)C(N)CCCCN)C(O)C(C)O2)Oc2ccc(cc2Cl)C1O (stereo not drawn) on 3798 S. aureus (GISA)?
result: 8
